- Tested on: Mus musculus
- assay.procedure: compound was tested in vivo for hypoglycemic activity in 6-8 week old C57BL/6J ob/ob mouse at 50 mg/kg
- Format: functional
observation.type: Hypoglycemic activity (%)
Numbers only, in %.

Sample answers from the record:
{"molecule": "C1CCC(NC2CCCCC2)CC1.CC(C)c1ccc(OC(Cc2cccc(F)c2)C(=O)O)cc1 (stereo unspecified)", "Hypoglycemic activity (%)": 100}
{"molecule": "C1CCC(NC2CCCCC2)CC1.CC(C)c1ccc(OC(Cc2ccc(Cl)c(Cl)c2)C(=O)O)cc1 (stereo unspecified)", "Hypoglycemic activity (%)": 65}
{"molecule": "C1CCC(NC2CCCCC2)CC1.CC(C)c1ccc(OC(Cc2cccc(Cl)c2)C(=O)O)cc1 (stereo unspecified)", "Hypoglycemic activity (%)": 32}
{"molecule": "C1CCC(NC2CCCCC2)CC1.CC(C)c1ccc(OC(Cc2cccc(C(F)(F)F)c2)C(=O)O)cc1 (stereo unspecified)", "Hypoglycemic activity (%)": 76}

# next molecule below
Prompt: Entry under review: CC(C)c1ccc(SC(Cc2ccc(Cl)cc2)C(=O)O)cc1 (stereo unspecified) . Reported Hypoglycemic activity?
Completion: 90
